molecular target: Human ASBT (Homo sapiens, UniProt Q12908); construct: expressed in transfected cells; host or cells: HEK293T; test: ASBT inhibition assay: [3H]-taurocholic acid uptake in HEK293T cells transiently transfected with human ASBT; type: cell-based; settings: HEK-293T
Sequence (Q12908 whole entry): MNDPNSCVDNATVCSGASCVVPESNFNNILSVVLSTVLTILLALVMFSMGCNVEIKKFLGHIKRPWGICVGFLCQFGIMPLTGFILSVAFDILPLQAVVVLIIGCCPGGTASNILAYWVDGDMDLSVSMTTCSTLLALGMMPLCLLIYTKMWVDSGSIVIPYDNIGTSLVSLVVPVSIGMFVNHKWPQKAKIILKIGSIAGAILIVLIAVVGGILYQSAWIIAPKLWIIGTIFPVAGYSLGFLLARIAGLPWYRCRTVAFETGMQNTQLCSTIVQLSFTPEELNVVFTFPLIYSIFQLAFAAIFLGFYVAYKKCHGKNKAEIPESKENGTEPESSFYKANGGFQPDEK
Field: inhibition at 10 µM. Provide a value for each of the compounds that follow.
Report the figure in % without appending any unit label.

Item under review: `O=C(Nc1cccc(OC(F)(F)F)c1)c1ccccc1NS(=O)(=O)c1ccc([N+](=O)[O-])cc1` . Reported inhibition at 10 µM?
66.7

Item under review: `Cc1ccc(NC(=O)c2ccccc2NS(=O)(=O)c2cccc(F)c2)cc1C(F)(F)F` . Reported inhibition at 10 µM?
57.6

Item under review: `O=C(Nc1cccc(OC(F)(F)F)c1)c1ccccc1NS(=O)(=O)c1cccc([N+](=O)[O-])c1` . Reported inhibition at 10 µM?
83.8

Item under review: `O=C(Nc1ccc(Cl)cc1Cl)c1ccccc1NS(=O)(=O)c1cccc(F)c1` . Reported inhibition at 10 µM?
42.6

Item under review: `O=C(Nc1ccc(Cl)cc1Cl)c1ccccc1NS(=O)(=O)c1cccc(OC(F)(F)F)c1` . Reported inhibition at 10 µM?
89.3

Item under review: `Cc1ccc(NC(=O)c2ccccc2NS(=O)(=O)c2cccc(OC(F)(F)F)c2)cc1C(F)(F)F` . Reported inhibition at 10 µM?
91.8

---

target: Human ASBT (Homo sapiens); construct: expressed in transfected cells; host or cells: HEK293T; test: ASBT inhibition assay: [3H]-taurocholic acid uptake in HEK293T cells transiently transfected with human ASBT; type: cell-based; conditions: HEK-293T
Tick fulfilled if inhibition at 10 µM is 70% or greater. Tick not fulfilled if inhibition at 10 µM is less than 70%.

Say whether COc1cccc(S(=O)(=O)Nc2ccccc2C(=O)Nc2ccc(C)c(C(F)(F)F)c2)c1 [Compound 5f3] shows inhibition at 10 µM of 70% or more.
not fulfilled

Say whether O=C(Nc1ccc(F)c(Cl)c1)c1ccccc1NS(=O)(=O)c1cccc(F)c1 [Compound 5e2] shows inhibition at 10 µM of 70% or more.
not fulfilled

Say whether O=C(Nc1ccc(F)c(Cl)c1)c1ccccc1NS(=O)(=O)c1cccc(OC(F)(F)F)c1 [Compound 5g2] shows inhibition at 10 µM of 70% or more.
fulfilled

Say whether O=C(Nc1cc(Cl)cc(Cl)c1)c1ccccc1NS(=O)(=O)c1cccc([N+](=O)[O-])c1 [Compound 5a7] shows inhibition at 10 µM of 70% or more.
not fulfilled

Say whether Cc1ccc(NC(=O)c2ccccc2NS(=O)(=O)c2cccc([N+](=O)[O-])c2)cc1C(F)(F)F [Compound 5a10] shows inhibition at 10 µM of 70% or more.
fulfilled

Say whether O=C(Nc1ccc(Cl)c(Cl)c1)c1ccccc1NS(=O)(=O)c1cccc(OC(F)(F)F)c1 [Compound 5g5] shows inhibition at 10 µM of 70% or more.
fulfilled

Say whether COc1ccc(NC(=O)c2ccccc2NS(=O)(=O)c2cccc([N+](=O)[O-])c2)cc1O [Compound 5a6] shows inhibition at 10 µM of 70% or more.
not fulfilled

Say whether Cc1ccc(NC(=O)c2ccccc2NS(=O)(=O)c2ccc([N+](=O)[O-])cc2)cc1C(F)(F)F [Compound 5d3] shows inhibition at 10 µM of 70% or more.
fulfilled
